biological target: PD-L1 on CHO-K1/PD-L1/alphaAPC stimulator cells (UniProt Q9NZQ7 19-290, limits assumed); test: cell-based or functional assay
Sequence (Q9NZQ7 19-290 limits assumed): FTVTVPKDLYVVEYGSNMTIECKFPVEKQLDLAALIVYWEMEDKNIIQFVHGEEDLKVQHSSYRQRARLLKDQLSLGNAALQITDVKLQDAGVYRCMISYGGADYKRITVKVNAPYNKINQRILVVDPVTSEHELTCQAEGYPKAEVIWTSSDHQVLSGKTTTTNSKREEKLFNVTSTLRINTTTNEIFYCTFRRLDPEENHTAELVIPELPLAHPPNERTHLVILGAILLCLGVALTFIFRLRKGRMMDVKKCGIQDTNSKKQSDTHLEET
Give measured PD-L1/PD-1 blockade EC50 (nM) for each item. Keep answers brief.
Quick reminder: number only, in nM, skip the unit.

So for PD-L1 binding agent 14 (antibody, V domains shown) VH: QVQLVQSGAEVKKPGASVKVSCKASGYNFSAYYVHWVRQAPGQGLEWMGWMNPNRGITDSAQKFQGRVTMTRDTSTSTVYMELSSLRSEDTAVYYCAREAYVAAFDIWGQGTTVTVSS VL: DIQMTQSPSSLSASVGDRVTITCRASQGISSWLAWYQQKPGKAPKLLIYAASSLQSGVPSRFSGSGSGTDFTLTISSLQPEDFATYYCQQSYSTPLTFGGGTKVEIK , the logged PD-L1/PD-1 blockade EC50 (nM) turned out to be 1.15

So for PD-L1 binding agent 6 (antibody, V domains shown) VH: QVQLVQSGAEVKKPGASVKVSCKASGYTFTSHDINWVRQAPGQGLEWMGWMNPNSGNTGYAQKFQGRVTMTRDTSTSTVYMELSSLRSEDTAVYYCARDRWYMGSADYWGQGTLVTVSS VL: DIQMTQSPSSLSASVGDRVTITCRASQSISTWLAWYQQKPGKAPKLLIYAASTLQSGVPSRFSGSGSGTDFTLTISSLQPEDFATYYCQQSYSTPFTFGQGTKVEIK , the logged PD-L1/PD-1 blockade EC50 (nM) turned out to be 0.73

So for PD-L1 binding agent 7 (antibody, V domains shown) VH: QVQLVQSGAEVKKPGASVKVSCKASGYTFTSYYMHWVRQAPGQGLEWMGWMNPNSGNTGYAQKFQGRVTMTRDTSTSTVYMELSSLRSEDTAVYYCARDDWGGDWFDPWGQGTLVTVSS VL: DIQMTQSPSSLSASVGDRVTITCQASQDISNHLNWYQQKPGKAPKLLIYGASNLQRGVPSRFSGSGSGTDFTLTISSLQPEDFATYYCQQSYSTPITFGQGTRLEIK , the logged PD-L1/PD-1 blockade EC50 (nM) turned out to be 0.73

So for PD-L1 binding agent 10 (antibody, V domains shown) VH: QVQLVQSGAEVKKPGASVKVSCKASGYTFTGYYMHWVRQAPGQGLEWMGWMNPNGGTTGYAQNFQGRVTMTRDTSTSTVYMELSSLRSEDTAVYYCAREGFGPNAFDIWGQGTTVTVSS VL: DIQMTQSPSSLSASVGDRVTITCRASQSISSWLAWYQQKPGKAPKLLIYAASNLQSGVPSRFSGSGSGTDFTLTISSLQPEDFATYYCQQYYSTPYTFGQGTKVEIK , the logged PD-L1/PD-1 blockade EC50 (nM) turned out to be 0.47
